experiment: protein stability index of a GFP-peptide fusion (yeast GPS) (PSI 1-4); higher = more stable; sorted into four equal gates, so the index is relative within each strain; details: ubr1∆
We use 3 as the dividing line for protein stability index: on or above the line is criterion met, below is criterion not met.

EASNTPIEHQFNPYGDN [PRE7] ... criterion met

Qu. Exam item: decide whether the reported protein stability index for LKEERAIEPETFTQLVS [PUP3] is at least 3.
Ans. criterion not met

Qu. Exam item: decide whether the reported protein stability index for YINSDSVNPAMLPGSSN [RPO31] is at least 3.
Ans. criterion not met

====

Quick reference for protein stability index among some sequences
assay: protein stability index of a GFP-peptide fusion (yeast GPS) (PSI 1-4); higher = more stable; sorted into four equal gates, so the index is relative within each strain; settings: pdr5∆
// no unit string in output, number only

Completed entries (count: 6):
SEAFPSLQSCSVAVHFQ [SMC4] ... 2.09
AGRGFTLAEVKAAGLTA [RPL13A] ... 2.5
LILQRLKDLNLTVSIKI [RGR1] ... 1.96
QVKKPRKQRVKKKTKKE [SWI1] ... 3.37
DTLDSKSNGSSDDDNIG [ISW2] ... 3.23
TMLENITLRGVENIERV [RPO21] ... 2.86

Qu. Quick check: protein stability index of VAARGLDIPNVSLVVNF [PRP28] ?
Ans. 2.5

Qu. Quick check: protein stability index of QLSQDEHSQVEQTCVKL [SRP72] ?
Ans. 3.24

====

assay: protein stability index of a GFP-peptide fusion (yeast GPS) (PSI 1-4); higher = more stable; sorted into four equal gates, so the index is relative within each strain; conditions: ubr1∆
Quick reference for protein stability index among some sequences
// no unit string in output, number only

Completed entries (count: 6):
LARGLRESTKALTRGEA [RPS12] ... 3.37
ESSFIEIDDTEAEVTAE [BRR2] ... 3.06
QIELSCNERVPLSVATE [SRP72] ... 2.12
GNPVNDANLLGAEVLIK [COR1] ... 2.89
TEYCVGDYVAYQLNGVA [YMR129W/POM152] ... 2.52
IALMGQDNKKIYVHVRR [ESC2] ... 2.53

Qu. Quick check: protein stability index of SNGPRAAKKRRPAAKGK [RRP6] ?
Ans. 3.17

Qu. Quick check: protein stability index of KKNDMNTSAKNKNGENK [SIR4] ?
Ans. 3.12

Qu. Quick check: protein stability index of ELLEYSDDIAENDNLDN [YCG1] ?
Ans. 3.25

====

Quick reference for protein stability index among some sequences
test: protein stability index of a GFP-peptide fusion (yeast GPS) (PSI 1-4); higher = more stable; sorted into four equal gates, so the index is relative within each strain; conditions: san1∆
// no unit string in output, number only

Completed entries (count: 5):
LHVEQLSGGQKTVCAIA [SMC3] ... 2.09
PYLPKHYLVLLVAKFLY [YJR042W/NUP85] ... 1.16
HPVSLISFAIYSALNST [RRP42] ... 1.62
TFHDYDMVKLDINPPLV [RRP42] ... 2.87
GKMIELISGKAGVLNGT [RET1] ... 2.52

Qu. Quick check: protein stability index of VWYGLSDGEDGHIPWHI [SSN2] ?
Ans. 3.07

Qu. Quick check: protein stability index of IDYKLRVLTQDGRVYIG [SMB1] ?
Ans. 1.67

Qu. Quick check: protein stability index of ESITYQKIMILQRTILN [RGR1] ?
Ans. 1.49

Qu. Quick check: protein stability index of FRFQGGIIVAVDSRATA [PRE2] ?
Ans. 1.3

Qu. Quick check: protein stability index of YARADTHFLLNIYDQLR [RRP6] ?
Ans. 2.44

Qu. Quick check: protein stability index of DPKTSLRIVKPTVSLTI [RPC82] ?
Ans. 2.56

Qu. Quick check: protein stability index of RDYQRINKNSKIALREY [POP4] ?
Ans. 2.69

Qu. Quick check: protein stability index of ARILARSERKRTKISRG [ITC1] ?
Ans. 3.07

Qu. Quick check: protein stability index of MSTESALSYAALILADS [RPP1A] ?
Ans. 1.72

Qu. Quick check: protein stability index of KANIFQVIKNEVCAKMP [SSN2] ?
Ans. 1.4

====

assay: protein stability index of a GFP-peptide fusion (yeast GPS) (PSI 1-4); higher = more stable; sorted into four equal gates, so the index is relative within each strain; settings: san1∆
Quick reference for protein stability index among some sequences
// no unit string in output, number only

APMRLATAALEIILKLC [YJL039C/NUP192] ... 1.31
PGDIVRAQVLSLGDGTN [CSL4] ... 3.14
MLRRHAAPPSTNFEILN [DIS3] ... 1.71
ISYTSHIEGVVILKKNP [RPN1] ... 2.87

Qu. Quick check: protein stability index of SKLEGTINKAVQVKVLG [ESC2] ?
Ans. 1.66

Qu. Quick check: protein stability index of ILNEVFTNPSIVKVFHG [RRP6] ?
Ans. 1.2

Qu. Quick check: protein stability index of TEKKFTKEQYAAESKKY [RPL5] ?
Ans. 2.98

Qu. Quick check: protein stability index of KIYRVGKGDDEANGATS [RPL3] ?
Ans. 3.67

Qu. Quick check: protein stability index of GCKNGSFTLLNQLSQTN [NUT1] ?
Ans. 2.97

Qu. Quick check: protein stability index of ADKNCAKLHRISPKIWC [PUP1] ?
Ans. 1.94

Qu. Quick check: protein stability index of TWEECVFFDDDPLYDIT [REC8] ?
Ans. 2.95

Qu. Quick check: protein stability index of FQIPTNLDAAAAGTSQA [RPC10] ?
Ans. 2.65

Qu. Quick check: protein stability index of MHRPVHFLQFSELAGDE [PRP8] ?
Ans. 2.88

Qu. Quick check: protein stability index of ADGQTLFAGYTDNVIRV [ASC1] ?
Ans. 2.22

====

Quick reference for protein stability index among some sequences
experiment: protein stability index of a GFP-peptide fusion (yeast GPS) (PSI 1-4); higher = more stable; sorted into four equal gates, so the index is relative within each strain; settings: san1∆
// no unit string in output, number only

Completed entries (count: 2):
TNEEVRNMAEEFEYDDE [CYT1] ... 2.49
LLDDKKLMDEDSVATVI [YJR042W/NUP85] ... 2.87

Qu. Quick check: protein stability index of FGAPNNPNSTAITADLG [YGL172W/NUP49] ?
Ans. 3.03

Qu. Quick check: protein stability index of NGLGTSHINTNVGDNNS [ARP7] ?
Ans. 2.74

Qu. Quick check: protein stability index of PGGAASKSVPTPSLPIA [SNF5] ?
Ans. 2.97

Qu. Quick check: protein stability index of FPTDLEIFQLFTNPSVD [SWI1] ?
Ans. 2.67

Qu. Quick check: protein stability index of KSLALLGYNFDGSAIED [SNF5] ?
Ans. 2.28

Qu. Quick check: protein stability index of ESSFIEIDDTEAEVTAE [BRR2] ?
Ans. 2.98

Qu. Quick check: protein stability index of QTLKGVGVENNGQYAAF [RPC37] ?
Ans. 2.9

Qu. Quick check: protein stability index of PIPDARNAALRAKAEAA [SCL1] ?
Ans. 2.44

Qu. Quick check: protein stability index of DEEIIQLHFSLLDEEAE [RPO21] ?
Ans. 2.89

Qu. Quick check: protein stability index of EAVELVIGLDSEHDKKR [YML103C/NUP188] ?
Ans. 3.16

Qu. Quick check: protein stability index of NSTDGAKITEIGSTSKR [YIL149C/MLP2] ?
Ans. 3.01

Qu. Quick check: protein stability index of KPSKPFNVDDVLKFTFT [MED8] ?
Ans. 3.03

====

assay: protein stability index of a GFP-peptide fusion (yeast GPS) (PSI 1-4); higher = more stable; sorted into four equal gates, so the index is relative within each strain; conditions: san1∆
quantity-name: protein stability index
// no unit string in output, number only

Completed entries (count: 5):
LGEEHPLQVARCTKIIK [RPT1] ... 2.75
LTKFRQKLMQLVVLTDV [RGR1] ... 1.24
VQASVTSSTHERKSKTY [RET1] ... 2.55
DQTNHIESDSILNLLNI [ECM29] ... 2.99
KPENKTDKVSLSQPVSA [SIR4] ... 2.49

Qu. Quick check: protein stability index of HCYPRQLCQITCQILES [RRP46] ?
Ans. 1.72

Qu. Quick check: protein stability index of QLLQRLNDMNTEISGLK [SMC3] ?
Ans. 3.22

Qu. Quick check: protein stability index of HYGLAVDIYTHFTSPIR [DIS3] ?
Ans. 1.61

Qu. Quick check: protein stability index of LITSEMFDAFVSFYFED [SIN4] ?
Ans. 1.87

Qu. Quick check: protein stability index of LLLNYLELIGVLSINPD [MED7] ?
Ans. 1.31

Qu. Quick check: protein stability index of DLSADKPTSPFIDSICK [SRB8] ?
Ans. 1.76

Qu. Quick check: protein stability index of TIGPYRARKDRMRVSVL [SSN3] ?
Ans. 3.07

Qu. Quick check: protein stability index of IQIFRAHLWQKIHESIV [PRP8] ?
Ans. 2.59

Qu. Quick check: protein stability index of EYADNDEDKFKKLKPIV [PRP28] ?
Ans. 3.09

Qu. Quick check: protein stability index of LNEEAVIFLSSLLTLVG [YJL039C/NUP192] ?
Ans. 2.3

The reported measurements were obtained from the supplement of paper PMC9732359.
